Assay: MM1S cell viability effects, profiling panel, calcein-AM fluorescence, 48 h, basal (AID 1165);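 note: viability of MM1S multiple myeloma cells under basal unstimulated conditions; test concentration not given here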
Conditions: higher = more signal
Each entry below carries its recorded z-score.
measure: z-score

CCOC(=O)C1=CCC(c2ccccc2)N(S(=O)(=O)CC[Si](C)(C)C)C1 (configuration not stated) = -1.76
O=C(O)[C@@]1(CCS(=O)(=O)c2ccccc2)COC(c2ccc(OCCCO)cc2)=N1 = -1.69
C=C/C=C/[C@H]1C(=C)CN([C@@H](Cc2ccccc2)C(=O)OC)[C@@H]1[C@H](O)Cc1ccccc1 = -2.2
CC(C)(C)OC(=O)CC[C@]12N=C(c3ccc(OCCCO)cc3)O[C@H]1c1ccccc1N(CCS(=O)(=O)c1ccccc1)C2=O = -1.52
COc1cc2c(cc1OC)CN(C(=O)[C@H]1[C@@H]3C(=O)O[C@@H](c4ccccc4)[C@@H](c4ccccc4)N3[C@@H](c3ccc(O)cc3)[C@]13C(=O)Nc1ccc(C#CCNC(N)=O)cc13)CC2 = 0.703
Cc1ccc(C(C)CC(O)C2C=CC3C(=O)N(c4ccccc4)C(=O)C3N2Nc2ccc([N+](=O)[O-])cc2)o1 (configuration not stated) = -0.0308
O=C1c2ccccc2[C@@]2(Cc3ccccc3N(CC(F)(F)F)C2=O)[C@H](c2ccc(CO)cc2)N1Cc1ccccc1Cl = -0.354

Attribution: PubChem BioAssay
